Entries and their inhibition at 10 µM
- studyTarget: CYP2C9 (Homo sapiens, UniProt P11712)
- Sequence (P11712 whole entry): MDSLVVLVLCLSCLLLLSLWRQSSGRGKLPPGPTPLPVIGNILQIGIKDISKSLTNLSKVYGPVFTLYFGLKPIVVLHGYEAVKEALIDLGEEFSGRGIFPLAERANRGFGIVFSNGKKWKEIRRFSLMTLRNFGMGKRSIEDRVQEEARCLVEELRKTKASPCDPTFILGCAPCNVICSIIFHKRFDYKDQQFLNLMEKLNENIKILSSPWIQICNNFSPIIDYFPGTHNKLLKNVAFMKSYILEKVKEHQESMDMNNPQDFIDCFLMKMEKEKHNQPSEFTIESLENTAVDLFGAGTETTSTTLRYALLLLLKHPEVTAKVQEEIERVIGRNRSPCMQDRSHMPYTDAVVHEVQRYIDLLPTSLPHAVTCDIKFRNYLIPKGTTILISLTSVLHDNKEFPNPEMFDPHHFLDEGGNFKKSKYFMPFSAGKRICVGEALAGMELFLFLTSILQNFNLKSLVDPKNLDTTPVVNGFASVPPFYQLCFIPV
- methodDescription: in vitro
- Design: cytochrome P450 isoform inhibition liability assay

{"compound": "Cc1ccc(CNc2nnc(N)s2)cc1 [4l]", "inhibition at 10 µM, %": 14.2}
{"compound": "N#Cc1ccc(Cc2ccccc2-c2nnc(N)s2)cc1 [1n]", "inhibition at 10 µM, %": 59.8}
{"compound": "Nc1nnc(Cc2ccc3ccccc3c2)s1 [3e]", "inhibition at 10 µM, %": -47.8}
{"compound": "Nc1nnc(NCc2ccccc2)s1 [4b]", "inhibition at 10 µM, %": -14.7}
{"compound": "COC(=O)C(Cc1ccccc1)Nc1nnc(N)s1 (stereo not shown) [4p]", "inhibition at 10 µM, %": -10.9}
{"compound": "Nc1nnc(-c2ccccc2)s1 [1a]", "inhibition at 10 µM, %": 3.9}
{"compound": "Nc1nnc(-c2ccco2)s1 [1s]", "inhibition at 10 µM, %": -9}
{"compound": "Nc1nnc(CCC(=O)c2cccs2)s1 [3k]", "inhibition at 10 µM, %": -10.5}
{"compound": "Nc1nnc(-c2cccc(Br)c2)s1 [1i]", "inhibition at 10 µM, %": -47.7}
{"compound": "Nc1nnc(-c2ccccc2Cc2ccccc2)s1 [1m]", "inhibition at 10 µM, %": 36.5}

====

- studyTarget: hDHFR (Homo sapiens, UniProt P00374)
- Construct: gene DHFR
- Sequence (P00374 1-187): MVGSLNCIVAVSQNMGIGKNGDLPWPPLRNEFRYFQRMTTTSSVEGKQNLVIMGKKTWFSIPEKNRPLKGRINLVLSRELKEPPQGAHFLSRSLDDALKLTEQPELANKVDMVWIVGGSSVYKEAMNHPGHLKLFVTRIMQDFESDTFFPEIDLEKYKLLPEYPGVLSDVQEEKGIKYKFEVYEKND
- methodDescription: biochemical
- Set-up: human DHFR enzyme inhibition

{"molecule": "Nc1nnc(N2CCC(Cc3ccccc3)CC2)s1", "inhibition at 100 µM": "13%"}
{"molecule": "CN(C)CCc1nnc(N)s1", "inhibition at 100 µM": "12%"}
{"molecule": "Nc1nnc(NCCc2cccs2)s1", "inhibition at 100 µM": "24%"}
{"molecule": "Nc1nnc(NCCc2ccccc2)s1", "inhibition at 100 µM": "19%"}
{"molecule": "Nc1nnc(NCc2ccc(-c3ccccc3)cc2)s1", "inhibition at 100 µM": "40%"}
{"molecule": "Nc1nnc(-c2ccc(O)c(O)c2)s1 [1d, 3′,4′-dihydroxy-phenyl-1,3,4-thiadiazole]", "inhibition at 100 µM": "62%"}
{"molecule": "Nc1nnc(NCc2ccc(Cl)c(Cl)c2)s1", "inhibition at 100 µM": "24%"}

====

- studyTarget: hERG (Homo sapiens)
- Construct: gene KCNH2
- Sequence (Q12809 whole entry): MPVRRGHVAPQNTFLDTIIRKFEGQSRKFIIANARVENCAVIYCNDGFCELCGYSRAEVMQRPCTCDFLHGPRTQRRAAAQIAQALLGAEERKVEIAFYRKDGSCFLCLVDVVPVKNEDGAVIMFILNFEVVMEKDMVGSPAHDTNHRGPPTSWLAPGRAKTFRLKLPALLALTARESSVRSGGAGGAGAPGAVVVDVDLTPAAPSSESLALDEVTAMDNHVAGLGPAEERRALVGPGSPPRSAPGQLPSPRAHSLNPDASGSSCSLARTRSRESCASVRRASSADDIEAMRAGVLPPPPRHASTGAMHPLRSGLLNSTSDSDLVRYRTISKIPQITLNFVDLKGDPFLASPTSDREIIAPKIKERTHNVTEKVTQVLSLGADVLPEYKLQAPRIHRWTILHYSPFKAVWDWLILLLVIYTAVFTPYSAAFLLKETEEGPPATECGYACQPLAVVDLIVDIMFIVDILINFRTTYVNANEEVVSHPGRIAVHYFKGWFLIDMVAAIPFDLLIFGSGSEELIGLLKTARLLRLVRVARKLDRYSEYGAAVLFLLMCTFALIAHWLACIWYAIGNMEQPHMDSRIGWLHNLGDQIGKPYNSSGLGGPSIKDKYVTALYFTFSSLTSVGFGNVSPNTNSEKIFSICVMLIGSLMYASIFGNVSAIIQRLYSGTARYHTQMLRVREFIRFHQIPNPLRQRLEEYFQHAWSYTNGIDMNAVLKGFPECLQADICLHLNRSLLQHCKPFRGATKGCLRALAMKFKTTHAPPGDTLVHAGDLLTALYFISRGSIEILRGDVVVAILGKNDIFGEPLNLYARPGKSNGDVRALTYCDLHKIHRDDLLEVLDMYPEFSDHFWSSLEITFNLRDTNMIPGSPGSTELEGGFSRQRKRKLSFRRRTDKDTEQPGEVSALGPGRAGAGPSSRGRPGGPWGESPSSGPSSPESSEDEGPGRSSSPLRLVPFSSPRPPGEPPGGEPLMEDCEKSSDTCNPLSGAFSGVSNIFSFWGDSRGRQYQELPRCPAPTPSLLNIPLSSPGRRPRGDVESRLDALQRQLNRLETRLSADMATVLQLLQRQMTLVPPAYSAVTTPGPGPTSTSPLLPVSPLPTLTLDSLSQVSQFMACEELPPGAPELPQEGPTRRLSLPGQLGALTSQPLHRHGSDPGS
- Parameters: hERG inhibition liability assay
measuredQuantity: inhibition at 10 µM (%)

{"molecule": "Nc1nnc(Cc2cccs2)s1 [3d]", "valueMeasured": 16}
{"molecule": "Nc1nnc(NCc2ccc(C(F)(F)F)cc2)s1 [4f]", "valueMeasured": 69.9}
{"molecule": "Nc1cccc(-c2ccc(-c3nnc(N)s3)cc2)c1 [2b]", "valueMeasured": 9.1}
{"molecule": "COc1ccc(-c2nnc(N)s2)cc1OC [1c]", "valueMeasured": 13.6}
{"molecule": "Nc1nnc(CCC(=O)c2ccccc2)s1 [3j]", "valueMeasured": -2.3}
{"molecule": "COc1cccc(OC)c1-c1nnc(N)s1 [1g]", "valueMeasured": 4.3}
{"molecule": "Nc1nnc(-c2ccco2)s1 [1s]", "valueMeasured": -3.8}
{"molecule": "NCc1ccc(-c2nnc(N)s2)cc1 [1b]", "valueMeasured": 5.7}

====

- studyTarget: CYP3A4 (Homo sapiens, UniProt P08684)
- Sequence (P08684 whole entry): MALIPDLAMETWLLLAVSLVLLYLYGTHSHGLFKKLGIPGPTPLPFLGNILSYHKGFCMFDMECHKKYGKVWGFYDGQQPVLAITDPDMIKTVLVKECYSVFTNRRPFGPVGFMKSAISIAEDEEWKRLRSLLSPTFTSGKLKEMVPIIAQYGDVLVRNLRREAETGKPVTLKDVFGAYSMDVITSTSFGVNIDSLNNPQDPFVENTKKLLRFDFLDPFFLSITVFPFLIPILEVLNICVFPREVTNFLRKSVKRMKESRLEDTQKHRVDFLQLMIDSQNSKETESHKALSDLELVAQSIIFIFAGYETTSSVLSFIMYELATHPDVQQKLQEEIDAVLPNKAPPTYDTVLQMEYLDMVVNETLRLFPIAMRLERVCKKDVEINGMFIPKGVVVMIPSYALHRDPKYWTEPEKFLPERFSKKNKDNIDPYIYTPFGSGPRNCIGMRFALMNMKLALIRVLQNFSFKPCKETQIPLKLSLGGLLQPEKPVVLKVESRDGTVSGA
- methodDescription: in vitro
- Design: cytochrome P450 isoform inhibition liability assay
Entries and their inhibition at 10 µM

{"structureSmilesString": "Nc1nnc(CCc2ccccc2)s1", "inhibition at 10 µM (%)": -25.6}
{"structureSmilesString": "Nc1nnc(-c2ccc(-c3nnc(N)s3)c(N)c2)s1", "inhibition at 10 µM (%)": -0.7}
{"structureSmilesString": "Nc1nnc(NCc2ccccc2)s1", "inhibition at 10 µM (%)": -9.5}
{"structureSmilesString": "COc1ccc(-c2cccc(-c3nnc(N)s3)c2)cc1OC", "inhibition at 10 µM (%)": 48.3}
{"structureSmilesString": "Nc1nnc(-c2ccc(Cl)c(Cl)c2)s1", "inhibition at 10 µM (%)": 35.7}
